biological target: Influenza virus A/Suita/1/2009pdm (H1N1 2009 pandemic) (Influenza A virus A/Suita/1/2009pdm (H1N1pdm)); assay: cell-based or functional assay
PROPERTY NAME: Neutralizing activity (%) at 250 µg/ml
Write the value in % as a bare number.

Below: 4 binders and their reported Neutralizing activity (%) at 250 µg/ml.
BINDER	MEASUREMENT UNITS	Neutralizing activity (%) at 250 µg/ml
Group 56 representative clone F083-318, Fab-PP-type antibody (Fab, V domains shown) VH: EVQLVQSGAEVKKPGSSVKVSCQASGSIFSNYAINWVRQAPGQGLEWMGGIVPIFGTTRFAQKFQGRLTITADEPRSTAYMELNNLISEDTAVYYCARAPLIYNWYYDLWGRGTLVTVSS VL: EIVLTQSPSSLSASVGDRVTITCRASQGISNYLAWYQQKPGKVPKLLIYAASTLQSGVPSRFSGSGSGTDFTLTISSLQPEDVATYYCQKYNSAPHTFGPGTKVDIK	%	27.9
Group 35 representative clone F082-117, Fab-PP-type antibody (Fab, V domains shown) VH: QVQLVQSGSEVKKPGSSVKVSCKSSGGILRRSAISWVRQAPGQGLEWMGGILAIFGTTKYAQKFQGRITITADESTNTVHMELSSLRPDDTAVYYCAGGPHYYVSYFDSWGQGTLVTVSS VL: DIQMTQSPATLSLSPGERATLSCRASQSVRSYLAWYQQKPGQAPRLLIYDASNRATGIPARFSGSGSGTEFTLTISRLEPEDFAVYYCQQRSNWLFTFGPGTKVDFK	%	100
Group 64 representative clone F083-301, Fab-PP-type antibody (Fab, V domains shown) VH: QVQLVQSGAEVKKPGSSVKVSCKASGGIFNSNAISWVRQAPGQGLEWMGGIIGIFGTANYAQKFQGRVTIAADQSTNTVFMELSSLTSEDTAVYFCARSRGYSFGYGTDYFDYWGQGTLVTVSS VL: DIVMTQSPSTLSASVGDRVTITCRASQSISSWLAWYQQAPGKAPKLLIYEASKLQSGVPSRFSATGSGTEFTLTIASLQPEDFAIYYCQHYEAYPFSFGPGTKLDVK	%	81.3
Group 63 representative clone F083-336, Fab-PP-type antibody (Fab, V domains shown) VH: QVQLQQSGAEVKQPGSSVKVSCKASGGIFRSNAISWVRQAPGQGLEWMGGIVALFGTANYAQKFQGRVTITADESTSTVYMELSSLRSEDTARYYCARNSGYHISGFYLDYWGQGTLVTVSS VL: EIVLTQSPSSLSASVGDRVTITCRASQGISNYLAWYQQRPGKVPKLLIYTASTLLSGVPSRFSGGGSGTDYTLTISSLQPEDVATYYCQEYKSVPLTFGPGTKVEIK	%	100

Task: Given the binder Group 47 representative clone F083-308, Fab-PP-type antibody (Fab, V domains shown) VH: QVQLVQSGAEVKKPGSSVKVSCKASGGIFRSHAISWVRQAPGQGLEWMGGIIAIFGTTHYAQQFQGRVTITADESTSTVYMELSTLRSEDTAVYYCARGPNYFESYFDNWGQGTLVTVSS VL: EIVLTQSPATLSLSPGERATLSCRASQTISSYLAWYQQKPGQAPRLLIYGASNRATGIPARFSGSGSGTDFTLTINSLEPEDFAVYYCQQRSSWPPITFGQGTRLEIK , write its reported Neutralizing activity (%) at 250 µg/ml.
Result: 100
